Would you mind telling me the reported residual activity of each entry?
Target: Tyrosine-protein kinase ABL1 (Homo sapiens) (UniProt P00519)
Sequence (P00519 whole entry): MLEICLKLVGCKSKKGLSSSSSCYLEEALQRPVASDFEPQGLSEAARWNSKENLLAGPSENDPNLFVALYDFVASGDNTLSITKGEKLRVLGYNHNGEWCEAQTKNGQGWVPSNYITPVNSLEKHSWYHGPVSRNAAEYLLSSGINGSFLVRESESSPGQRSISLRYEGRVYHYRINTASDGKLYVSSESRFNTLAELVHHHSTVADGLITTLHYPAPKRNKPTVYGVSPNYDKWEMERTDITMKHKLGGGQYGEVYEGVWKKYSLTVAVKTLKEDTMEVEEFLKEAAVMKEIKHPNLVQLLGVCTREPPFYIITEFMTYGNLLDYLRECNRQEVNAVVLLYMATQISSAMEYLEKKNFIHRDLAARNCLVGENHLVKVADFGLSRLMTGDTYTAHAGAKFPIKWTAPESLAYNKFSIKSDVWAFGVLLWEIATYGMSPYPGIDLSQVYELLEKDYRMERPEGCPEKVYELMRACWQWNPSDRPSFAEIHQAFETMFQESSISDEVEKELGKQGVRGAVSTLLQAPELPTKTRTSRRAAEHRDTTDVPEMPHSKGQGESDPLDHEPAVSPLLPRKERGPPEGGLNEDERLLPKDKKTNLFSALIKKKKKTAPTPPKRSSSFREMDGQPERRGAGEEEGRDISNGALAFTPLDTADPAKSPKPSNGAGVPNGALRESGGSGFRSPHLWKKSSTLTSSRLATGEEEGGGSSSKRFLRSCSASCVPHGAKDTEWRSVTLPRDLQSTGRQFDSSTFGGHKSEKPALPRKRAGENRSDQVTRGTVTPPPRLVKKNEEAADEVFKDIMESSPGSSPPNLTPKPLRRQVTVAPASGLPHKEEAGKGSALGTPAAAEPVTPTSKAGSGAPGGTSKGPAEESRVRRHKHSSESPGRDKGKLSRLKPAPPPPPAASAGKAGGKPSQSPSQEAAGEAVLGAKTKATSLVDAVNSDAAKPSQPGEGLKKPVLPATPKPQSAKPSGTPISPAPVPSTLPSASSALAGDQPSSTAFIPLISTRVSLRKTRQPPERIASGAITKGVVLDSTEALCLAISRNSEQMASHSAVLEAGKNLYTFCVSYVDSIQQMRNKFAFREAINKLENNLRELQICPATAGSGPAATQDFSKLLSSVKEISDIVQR
Conditions: at 1 µM
Answer format: numeric, % implied, no suffix.

Exam item: // query residual activity value for entry COc1cc2ncc(-c3ccccc3)nc2cc1OC
Marked response: 96

Exam item: Look up residual activity for this compound: COc1ccc(C(=O)Nc2sc3c(c2C(N)=O)CCCC3)cc1OC
Marked response: 87

Exam item: Give its residual activity value. Item: O=C(Nc1cccc(Nc2cc(Nc3cccc(C(F)(F)F)c3)ncn2)c1)C1CC1
Marked response: 84

Exam item: Reported residual activity, compound O=C1Nc2ccc(Br)cc2/C1=C\c1cc2c([nH]1)CCCC2 : ____
Marked response: 105

Exam item: Please give the measured residual activity for this compound: C[C@@H](N)[C@H]1CC[C@H](C(=O)Nc2ccncc2)CC1
Marked response: 113

Exam item: Quick check: residual activity of O=C1NC(=O)/C(=C\c2ccc3nccnc3c2)S1 ?
Marked response: 100

Exam item: Fill in the blank: the reported residual activity of Cc1ccc(S(=O)(=O)/C=C/C#N)cc1 is ____.
Marked response: 104

Exam item: Given the entry Ic1cccc(CSc2nnc(-c3ccncc3)o2)c1 , report its measured residual activity.
Marked response: 87

Exam item: Look at this compound and give its reported residual activity. O=c1cc(-c2cccc3c2Sc2ccccc2S3)oc(N2CCOCC2)c1
Marked response: 99

Exam item: Param item = Cc1cccc(-c2[nH]c(C(C)(C)C)nc2-c2ccc3c(c2)OCO3)n1 ; retrieve measured residual activity.
Marked response: 96

Exam item: Entry O=C1NC(=O)c2cc(Nc3ccc(F)cc3)c(Nc3ccc(F)cc3)cc21 : reported residual activity = ?
Marked response: 85

====

Target: Serine/threonine-protein kinase WNK3 (Homo sapiens) (UniProt Q9BYP7);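 note: remaining kinase activity expressed versus control, assayed in 8 mM MOPS buffer pH 7.0 with 0.2 mM EDTA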
Sequence (Q9BYP7 whole entry): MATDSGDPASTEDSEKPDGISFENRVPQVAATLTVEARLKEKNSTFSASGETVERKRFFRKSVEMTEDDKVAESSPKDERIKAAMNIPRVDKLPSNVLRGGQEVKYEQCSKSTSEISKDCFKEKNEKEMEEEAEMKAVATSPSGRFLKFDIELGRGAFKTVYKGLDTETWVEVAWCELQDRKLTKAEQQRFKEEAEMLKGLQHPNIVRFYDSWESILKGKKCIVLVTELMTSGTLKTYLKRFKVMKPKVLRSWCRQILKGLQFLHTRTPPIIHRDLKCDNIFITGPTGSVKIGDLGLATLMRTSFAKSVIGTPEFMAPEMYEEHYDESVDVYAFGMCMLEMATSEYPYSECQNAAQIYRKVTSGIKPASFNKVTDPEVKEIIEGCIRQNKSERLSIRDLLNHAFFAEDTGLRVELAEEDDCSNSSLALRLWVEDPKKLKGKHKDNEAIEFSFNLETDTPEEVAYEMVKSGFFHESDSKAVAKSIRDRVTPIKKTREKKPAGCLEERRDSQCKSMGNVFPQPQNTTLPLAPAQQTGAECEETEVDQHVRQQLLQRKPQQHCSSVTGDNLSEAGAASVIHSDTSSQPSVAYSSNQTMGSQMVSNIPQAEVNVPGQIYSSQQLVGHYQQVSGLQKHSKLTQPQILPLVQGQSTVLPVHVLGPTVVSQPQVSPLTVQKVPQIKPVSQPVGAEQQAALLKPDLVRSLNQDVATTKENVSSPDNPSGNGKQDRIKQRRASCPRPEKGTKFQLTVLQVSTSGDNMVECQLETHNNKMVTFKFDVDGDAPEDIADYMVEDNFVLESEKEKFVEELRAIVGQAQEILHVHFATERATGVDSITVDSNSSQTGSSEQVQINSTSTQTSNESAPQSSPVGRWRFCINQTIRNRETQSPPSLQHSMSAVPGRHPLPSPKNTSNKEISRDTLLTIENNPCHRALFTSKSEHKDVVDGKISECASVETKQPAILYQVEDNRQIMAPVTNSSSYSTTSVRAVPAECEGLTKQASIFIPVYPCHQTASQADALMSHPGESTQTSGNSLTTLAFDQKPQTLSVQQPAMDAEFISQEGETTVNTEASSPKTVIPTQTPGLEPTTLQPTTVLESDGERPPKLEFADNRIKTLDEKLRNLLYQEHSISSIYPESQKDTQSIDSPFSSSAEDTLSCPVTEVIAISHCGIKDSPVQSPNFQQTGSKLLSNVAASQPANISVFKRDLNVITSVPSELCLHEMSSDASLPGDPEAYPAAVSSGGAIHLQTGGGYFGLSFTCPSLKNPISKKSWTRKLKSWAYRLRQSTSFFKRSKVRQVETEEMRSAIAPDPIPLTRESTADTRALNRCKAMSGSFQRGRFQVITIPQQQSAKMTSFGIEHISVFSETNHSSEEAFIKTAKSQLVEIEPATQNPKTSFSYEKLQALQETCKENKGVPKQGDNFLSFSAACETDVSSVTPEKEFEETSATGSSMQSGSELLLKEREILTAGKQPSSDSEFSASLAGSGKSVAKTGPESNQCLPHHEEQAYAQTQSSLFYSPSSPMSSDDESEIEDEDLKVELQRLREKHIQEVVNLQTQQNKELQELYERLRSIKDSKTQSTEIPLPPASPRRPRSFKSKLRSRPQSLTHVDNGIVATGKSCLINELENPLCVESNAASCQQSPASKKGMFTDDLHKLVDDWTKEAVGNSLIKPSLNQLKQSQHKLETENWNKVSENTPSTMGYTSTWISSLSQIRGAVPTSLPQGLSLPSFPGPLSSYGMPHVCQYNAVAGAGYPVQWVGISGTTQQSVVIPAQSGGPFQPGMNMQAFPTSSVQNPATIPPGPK
Conditions: at 1 µM
Description: Millipore: Percentage of residual kinase activity of WNK3 at 1uM relative to control. Control inhibitor: Phosphoric acid* at 0.3uM. Buffer: 8 mM MOPS pH 7.0, 0.2 mM EDTA
endpoint name: residual activity (%)
Numbers only here, please. The scale is %.

Exam item: Name the recorded residual activity for CN(C)CCCn1cc(C2=C(c3c[nH]c4ccccc34)C(=O)NC2=O)c2ccccc21 .
Marked response: 121

Exam item: Requested field: residual activity. Item: O=C1NC(=O)/C(=C/c2ccc3c(c2)OC(F)(F)O3)S1
Marked response: 104

Exam item: Name the recorded residual activity for O=[N+]([O-])c1ccc(-c2nc(-c3ccc(F)cc3)c(-c3ccncc3)[nH]2)cc1 .
Marked response: 92

Exam item: What does the record list as residual activity for O=C1Nc2ccc(Br)cc2/C1=C\c1cc2c([nH]1)CCCC2 ?
Marked response: 118

Exam item: Suppose we examine the molecule CC(C)n1cnc2/c(=N/c3cccc(Cl)c3)nc(NCCO)[nH]c21 ; what residual activity value has been reported?
Marked response: 88

Exam item: Need residual activity, item COc1cc2ncc(-c3ccccc3)nc2cc1OC
Marked response: 126

====

Target: Proto-oncogene tyrosine-protein kinase receptor Ret (Homo sapiens) (UniProt P07949)
Sequence (P07949 whole entry): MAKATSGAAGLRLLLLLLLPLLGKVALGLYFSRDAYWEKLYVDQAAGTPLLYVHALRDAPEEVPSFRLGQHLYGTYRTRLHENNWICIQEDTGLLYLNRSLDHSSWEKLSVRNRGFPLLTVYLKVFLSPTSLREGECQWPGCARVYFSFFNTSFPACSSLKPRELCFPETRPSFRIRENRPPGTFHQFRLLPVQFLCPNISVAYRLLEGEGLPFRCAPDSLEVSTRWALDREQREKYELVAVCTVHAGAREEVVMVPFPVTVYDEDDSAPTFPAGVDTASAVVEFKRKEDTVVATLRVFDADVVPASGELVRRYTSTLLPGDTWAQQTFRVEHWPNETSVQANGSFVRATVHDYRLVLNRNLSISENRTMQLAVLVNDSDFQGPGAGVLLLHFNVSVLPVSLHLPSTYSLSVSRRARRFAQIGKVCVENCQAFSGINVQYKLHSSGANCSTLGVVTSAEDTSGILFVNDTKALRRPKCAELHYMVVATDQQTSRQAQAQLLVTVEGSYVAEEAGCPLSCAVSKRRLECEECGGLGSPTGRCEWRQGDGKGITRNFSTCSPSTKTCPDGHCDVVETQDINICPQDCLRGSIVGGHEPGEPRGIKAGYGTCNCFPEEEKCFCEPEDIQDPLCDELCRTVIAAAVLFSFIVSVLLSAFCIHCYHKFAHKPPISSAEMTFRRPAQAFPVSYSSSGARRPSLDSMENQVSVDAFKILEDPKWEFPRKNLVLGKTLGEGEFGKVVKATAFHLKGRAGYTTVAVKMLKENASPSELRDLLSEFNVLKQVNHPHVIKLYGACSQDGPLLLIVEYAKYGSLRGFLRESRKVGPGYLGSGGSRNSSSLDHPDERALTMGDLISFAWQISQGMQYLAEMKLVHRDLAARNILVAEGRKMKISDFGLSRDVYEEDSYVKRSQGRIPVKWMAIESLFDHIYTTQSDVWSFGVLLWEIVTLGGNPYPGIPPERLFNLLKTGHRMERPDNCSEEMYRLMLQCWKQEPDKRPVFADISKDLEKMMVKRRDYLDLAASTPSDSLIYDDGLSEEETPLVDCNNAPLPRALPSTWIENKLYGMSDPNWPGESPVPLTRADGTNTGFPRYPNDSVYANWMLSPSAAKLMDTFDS
Conditions: at 1 µM
Please provide measured residual activity for the entries that follow.
Your answer is read as %, so omit the unit and give the number.

Exam item: Consider the compound Ic1cccc(CSc2nnc(-c3ccncc3)o2)c1 and give its measured residual activity.
Marked response: 93

Exam item: Look up residual activity: COc1cc2ncnc(Nc3ccc(Oc4ccccc4)cc3)c2cc1OC
Marked response: 25

Exam item: Would you kindly share the measured residual activity for Cc1ccc(NC2=CC(=O)c3sc(C)nc3C2=O)cc1 ?
Marked response: 109

Exam item: // residual activity lookup, key: COc1ccc(S(=O)(=O)N(CCO)c2ccccc2CN(C)C/C=C/c2ccc(Cl)cc2)cc1
Marked response: 105

Exam item: For the compound CC(C)n1cnc2/c(=N/c3cccc(Cl)c3)nc(NCCO)[nH]c21 , what residual activity is on record?
Marked response: 93

Exam item: # query: residual activity of entry COc1ccc(C(=O)Nc2sc3c(c2C(N)=O)CCCC3)cc1OC
Marked response: 93

====

What residual activity was measured for each of the following?
Target: Aurora kinase A (Homo sapiens) (UniProt O14965)
Sequence (whole entry): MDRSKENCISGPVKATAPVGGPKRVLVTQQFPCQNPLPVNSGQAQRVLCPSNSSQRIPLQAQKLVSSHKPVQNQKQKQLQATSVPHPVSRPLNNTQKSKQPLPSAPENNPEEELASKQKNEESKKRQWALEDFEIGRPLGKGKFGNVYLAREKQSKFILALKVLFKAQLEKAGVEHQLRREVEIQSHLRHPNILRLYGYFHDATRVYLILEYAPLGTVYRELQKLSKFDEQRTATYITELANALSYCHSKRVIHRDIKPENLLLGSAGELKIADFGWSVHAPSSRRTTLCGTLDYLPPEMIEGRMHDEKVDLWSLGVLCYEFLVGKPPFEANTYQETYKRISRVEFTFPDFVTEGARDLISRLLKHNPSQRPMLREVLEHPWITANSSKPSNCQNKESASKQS
Conditions: at 1 µM
Record the result as a number with its unit.

Exam item: Which residual activity value belongs to O=C1Nc2ccccc2/C1=C1/Nc2ccccc2/C1=N\OCCC(O)CO (stereo unspecified) ?
Marked response: 7%

Exam item: For the molecule shown here, Oc1ccc(-c2nc(-c3ccc(F)cc3)c(-c3ccncc3)[nH]2)cc1 , give the reported residual activity.
Marked response: 105%

Exam item: # query: residual activity of entry Cn1cc(/C=C2\C(=O)Nc3ccc(S(N)(=O)=O)cc32)c2ccccc21
Marked response: -4%

Exam item: Which residual activity reading was recorded for the molecule O=c1cc(-c2cccc3c2Sc2ccccc2S3)oc(N2CCOCC2)c1 ?
Marked response: 101%

Exam item: # query: residual activity of entry COc1ccc(S(=O)(=O)N(CCO)c2ccccc2CN(C)C/C=C/c2ccc(Cl)cc2)cc1
Marked response: 122%

Exam item: Using the record for N#C/C(=C(\N)Sc1ccc(N)cc1)c1ccccc1C(F)(F)F , report its residual activity.
Marked response: 75%

Exam item: For O=C1Nc2cc(Br)ccc2/C1=C1/Nc2ccccc2/C1=N\O , what is its reported residual activity?
Marked response: 31%

Exam item: Which value of residual activity has been reported for COc1ccc(CNc2nc(N(CCO)CCO)nc3c2ncn3C(C)C)cc1 in the records?
Marked response: 89%

Exam item: Requested read-out: residual activity. Entry: CNc1cc2c(Nc3cccc(Br)c3)ncnc2cn1
Marked response: 60%

Exam item: Field request: residual activity | item: COc1ccc(OC)c2c(=S)c3ccccc3[nH]c12
Marked response: 116%

Exam item: Could you tell me which residual activity is on file for Nc1ccc2ncnc(NCCc3ccc(Oc4ccccc4)cc3)c2c1 ?
Marked response: 102%

Exam item: Would you mind telling me what residual activity value was observed for N#CCCc1ccc2c(c1)-c1[nH]c3ccc([N+](=O)[O-])cc3c1CC(=O)N2 ?
Marked response: 61%

Exam item: Given the entry Nc1cccc(-c2cc3c(Oc4cccc(O)c4)ncnc3[nH]2)c1 , report its measured residual activity.
Marked response: 28%

Exam item: Request the reported residual activity associated with Cc1cccc(-c2[nH]c(C(C)(C)C)nc2-c2ccc3c(c2)OCO3)n1
Marked response: 93%

Exam item: Quick check: residual activity of Oc1n[nH]c2nnc(-c3c(-c4ccccc4)nn4ccccc34)cc12 ?
Marked response: 104%

Exam item: Form field: reported residual activity of CO[C@@H]1[C@H](N(C)C(=O)c2ccccc2)C[C@H]2O[C@]1(C)n1c3ccccc3c3c4c(c5c6ccccc6n2c5c31)C(=O)NC4
Marked response: -3%

Exam item: Form field: reported residual activity of CO[C@H]1[C@@H](OC)C[C@H](C)[C@@H](OC)C2=CC(=O)C=C(NC(=O)/C(C)=C/C=C/[C@H](OC)[C@@H](OC(N)=O)/C(C)=C/[C@@H]1C)C2=O
Marked response: 77%

Exam item: # input molecule: CC(C)n1cnc2/c(=N/c3cccc(Cl)c3)nc(NCCO)[nH]c21 ; wanted: its residual activity
Marked response: 88%

Exam item: Could you tell me which residual activity is on file for N#CC(C#N)=C(N)/C(C#N)=C/c1ccc(O)cc1 ?
Marked response: 83%

Exam item: Quick check: residual activity of NC(=O)c1ccc2[nH]c(-c3ccc(Oc4ccc(Cl)cc4)cc3)nc2c1 ?
Marked response: 88%

Exam item: Name the recorded residual activity for Cn1nc2c3c(cccc31)C(=O)c1ccccc1-2 .
Marked response: 79%

====

Target: Ephrin type-A receptor 2 (Homo sapiens)
Settings: at 1 µM
For each record, write down the corresponding residual activity.
Output spec: scalar in %, unitless text.

Exam item: Would you kindly share the measured residual activity for C[C@@H](N)[C@H]1CC[C@H](C(=O)Nc2ccncc2)CC1 ?
Marked response: 96

Exam item: Looking for the measured residual activity of c1ccc(-c2n[nH]cc2-c2ccnc3ccccc23)nc1 , can you help?
Marked response: 102

Exam item: Quick check: residual activity of N#Cc1cnc2cnc(NCc3cccnc3)cc2c1Nc1ccc(F)c(Cl)c1 ?
Marked response: 96

Exam item: Requested read-out: residual activity. Entry: Cc1nc2cc3nc(-c4cccs4)cnc3cc2n1C
Marked response: 110

Exam item: What does the record list as residual activity for Cc1cc2ncc(-c3ccccc3)nc2cc1C ?
Marked response: 109

Exam item: Data request, read-out residual activity, for c1ccc2c(-c3ccncc3)c[nH]c2c1
Marked response: 104

Exam item: # query: residual activity of entry Cn1cnc2cc3c(Nc4cccc(Br)c4)ncnc3cc21
Marked response: 89

Exam item: Fill in the blank: the reported residual activity of O=C1NC(=O)/C(=C/c2ccc3c(c2)OC(F)(F)O3)S1 is ____.
Marked response: 107

Exam item: For the compound shown here, CC(C)n1cnc2c(NCc3ccccc3)nc(NCCCO)nc21 , give the reported residual activity.
Marked response: 102

Exam item: Give its residual activity value. Item: CC(=O)O/N=C1\C(=C2\C(=O)Nc3cc(Br)ccc32)Nc2ccccc21
Marked response: 92

Exam item: Reported residual activity, compound COc1ccc(S(=O)(=O)N(CCO)c2ccccc2CN(C)C/C=C/c2ccc(Cl)cc2)cc1 : ____
Marked response: 96

Origin of the recorded values: ChEMBL document CHEMBL2218924
